procedure-summary: self-splicing fitness, log relative to wild type (ln ratio); higher = more splicing; Tetrahymena group I intron in knt gene, E. coli kanamycin selection, DiMSum; sequences stand for … in CUCUCU…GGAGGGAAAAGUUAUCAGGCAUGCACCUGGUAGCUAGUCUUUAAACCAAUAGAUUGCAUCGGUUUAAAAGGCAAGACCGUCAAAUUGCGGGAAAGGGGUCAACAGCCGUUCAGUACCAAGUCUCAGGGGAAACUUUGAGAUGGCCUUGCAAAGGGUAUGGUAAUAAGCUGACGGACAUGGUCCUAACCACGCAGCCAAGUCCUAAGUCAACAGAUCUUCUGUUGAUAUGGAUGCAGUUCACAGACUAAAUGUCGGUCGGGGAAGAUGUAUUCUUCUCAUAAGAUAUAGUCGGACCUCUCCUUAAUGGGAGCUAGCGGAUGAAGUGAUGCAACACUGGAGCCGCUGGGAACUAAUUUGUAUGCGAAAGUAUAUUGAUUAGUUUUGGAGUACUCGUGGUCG;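 also: selection with 25 µg/mL kanamycin versus none on LB agar overnight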
condition-details: 30 °C
Below: a set of entries, each annotated with reported self-splicing fitness (ln).

{"sequence-data": "CUUUAGCAAUAUUACGUUCG", "self-splicing fitness (ln)": -1.09}
{"sequence-data": "GGACAGCAAUAUUACGCCUA", "self-splicing fitness (ln)": -0.825}
{"sequence-data": "CACUAGCAAUAUUACGUUGC", "self-splicing fitness (ln)": -2.61}
{"sequence-data": "UUAGAGCAAUAUUACGUCGC", "self-splicing fitness (ln)": -3.05}
{"sequence-data": "GAAUAGCAAUAUUACGCUGU", "self-splicing fitness (ln)": -3.12}
{"sequence-data": "GCCAAGCAAUAUUACGACGA", "self-splicing fitness (ln)": -1.84}
{"sequence-data": "CCAUAGCAAUAUUACGCCAG", "self-splicing fitness (ln)": -1.94}
{"sequence-data": "CAGGAGCAAUAUUACGUACG", "self-splicing fitness (ln)": -1.06}
{"sequence-data": "UCACAGCAAUAUUACGCUUA", "self-splicing fitness (ln)": -1.66}
{"sequence-data": "CGAAAGCAAUAUUACGUCCC", "self-splicing fitness (ln)": -0.693}
{"sequence-data": "GGCGAGCAAUAUUACGUUAG", "self-splicing fitness (ln)": -1.94}
{"sequence-data": "AGUGAGCAAUAUUACGCCCA", "self-splicing fitness (ln)": -3.28}
{"sequence-data": "CAUGAGCAAUAUUACGUAUA", "self-splicing fitness (ln)": -3.31}
{"sequence-data": "GAUUAGCAAUAUUACGCCCG", "self-splicing fitness (ln)": 0.359}
{"sequence-data": "UUCCAGCAAUAUUACGCGGC", "self-splicing fitness (ln)": -3.73}
{"sequence-data": "CCAAAGCAAUAUUACGACUU", "self-splicing fitness (ln)": -3.77}
{"sequence-data": "UCAGAGCAAUAUUACGCACU", "self-splicing fitness (ln)": -2.95}
{"sequence-data": "UCCCAGCAAUAUUACGCUCC", "self-splicing fitness (ln)": -1.78}
{"sequence-data": "UGCUAGCAAUAUUACGACGG", "self-splicing fitness (ln)": -0.768}
{"sequence-data": "GGAUAGCAAUAUUACGAAUG", "self-splicing fitness (ln)": -2.73}
{"sequence-data": "GUGUAGCAAUAUUACGUGUU", "self-splicing fitness (ln)": -3.14}
{"sequence-data": "ACGCAGCAAUAUUACGAGUC", "self-splicing fitness (ln)": -4.93}
{"sequence-data": "UUUGAGCAAUAUUACGCGAC", "self-splicing fitness (ln)": -2.15}
{"sequence-data": "GGCUAGCAAUAUUACGUACC", "self-splicing fitness (ln)": -0.292}
{"sequence-data": "GUUUAGCAAUAUUACGACUG", "self-splicing fitness (ln)": -4.08}
{"sequence-data": "CGGUAGCAAUAUUACGCUGA", "self-splicing fitness (ln)": -2.23}
{"sequence-data": "AGAUAGCAAUAUUACGCGGU", "self-splicing fitness (ln)": -2.93}
{"sequence-data": "CUACAGCAAUAUUACGUGCA", "self-splicing fitness (ln)": -3.73}
{"sequence-data": "ACUCAGCAAUAUUACGUUCU", "self-splicing fitness (ln)": -0.967}
{"sequence-data": "CGAUAGCAAUAUUACGACGC", "self-splicing fitness (ln)": -2.34}
{"sequence-data": "GGAUAGCAAUAUUACGACGC", "self-splicing fitness (ln)": -0.274}
{"sequence-data": "GGCCAGCAAUAUUACGCUGG", "self-splicing fitness (ln)": -3.98}
{"sequence-data": "AACAAGCAAUAUUACGGUUC", "self-splicing fitness (ln)": -2.97}
{"sequence-data": "UGCCAGCAAUAUUACGUGUA", "self-splicing fitness (ln)": -1.26}
